Data credit: PubChem BioAssay (NCI)

Listing of entries alongside the reported TGI.
- Test system: SF-295 CNS
- method.description: NCI tumour cell line growth inhibition, 48 h
reported.metric: TGI

>>> obs_value("C1CSCCSS[C@@H]2CCCCC2SC1 (stereo not given in full)")
"> 100 µM"
>>> obs_value("c1csc(-c2cc(-c3ccsc3)c(-c3cccs3)s2)c1")
"> 100 µM"
>>> obs_value("COc1ccc(C(F)(F)F)cc1NC(=O)O/N=C(/Cl)C(C)C")
"> 66.3 µM"
>>> obs_value("CCCCCCCCCCCCCCCCCCNc1ccn(C2OC(COP(=O)(O)OCCCCCCCCCCCCCCCC)C(O)C2O)c(=O)n1 (stereo not given)")
"> 100 µM"
>>> obs_value("C[n+]1ccccc1/C=C/c1ccc2c(c1)OCO2")
"> 10 µM"
>>> obs_value("CCCNCC(O)/C=C/[Si](C)(C)C (stereo not given) (tested in a mixture with another compound)")
"> 100 µM"
>>> obs_value("Cc1ccc2nc(NC(=O)CSC(=S)N3CCN(Cc4ccccc4)CC3)sc2c1")
"> 100 µM"
>>> obs_value("CC[O+]=c1cccc2ssnc1-2")
"> 100 µM"
>>> obs_value("Oc1ccc2ccccc2c1N=Nc1ccc(N=Nc2ccccc2)cc1")
"> 100 µM"
>>> obs_value("COC(=O)[C@@H]1C[C@H]2[C@H](c3ccccc3Br)[C@@H](OC(C)=O)[C@@H](OCc3ccccc3)ON2O1")
"> 100 µM"
>>> obs_value("S=C(S)NCCCn1ccnc1")
"> 100 µM"
>>> obs_value("COc1cc([N+](=O)[O-])c(S(=O)(=O)O)cc1-n1nc(-c2ccccc2)n[n+]1-c1cc(S(=O)(=O)[O-])c([N+](=O)[O-])cc1OC")
"> 100 µM"
>>> obs_value("COc1ccc2c(CCNS(=O)(=O)c3ccccc3)c(C(C)=O)[nH]c2c1[N+](=O)[O-]")
"> 100 µM"
>>> obs_value("CCOc1ccc2c(-c3ccnc(Nc4cccc(C(F)(F)F)c4)n3)cnn2n1")
"> 25 µM"
>>> obs_value("COc1cc2c(C#N)n3c(c2cc1OC)C(=O)C(c1ccccc1)Oc1ccccc1-3 (stereo not given)")
"> 100 µM"
>>> obs_value("CN1C(=O)NC2(O)c3ccccc3C(=O)C12O (stereo not given)")
"> 100 µM"
>>> obs_value("CC(=O)C1CC2(c3ccccc3)C(=O)c3ccccc3N2O1 (stereo not given)")
"> 100 µM"
>>> obs_value("COc1cc2c(cc1OC)C(C1(O)CCCCC1)NCC2 (stereo not given)")
"> 100 µM"
>>> obs_value("CCC1(c2ccncc2)CCC(=O)NC1=O (stereo not given)")
"> 100 µM"
>>> obs_value("Clc1ccc(OCc2nnc(CCCCCCCCc3nnc(COc4ccc(Cl)cc4)o3)o2)cc1")
"> 100 µM"

====

- System: NCI-H522 lung
- method.description: NCI tumour cell line growth inhibition, 48 h; in the data active = GI50 below about 0.43 µM; inactive = the rest
Possible outcomes: 1.0 for active, 0.0 for inactive

>>> qualitative_label("COc1cc2c(cc1OCCN1C(=O)c3cccc4cccc(c34)C1=O)N=C[C@@H]1CCCN1C2=O")
0.0
>>> qualitative_label("CN1CCN(c2ccc(NC3=C(Cl)C(=O)c4ncccc4C3=O)cc2C(F)(F)F)CC1")
0.0
>>> qualitative_label("COc1cccc(NC(=O)c2ccc(C(F)(F)F)nc2Nc2ccc(Cl)cc2C)c1")
0.0
>>> qualitative_label("CN([N-]C(=O)CC(=O)[N-]N(C)C(=S)c1ccccc1)C(=S)c1ccccc1.[Cu+2]")
1.0
>>> qualitative_label("CC(=O)[CH-]C(=O)c1ccccc1.CC(=O)[CH-]C(=O)c1ccccc1.CC(C)CCCC(C)[C@H]1CCC2[C@@H]3CCC4C[C@@H]([O-])CC[C@]4(C)C3CC[C@@]21C.CC(C)CCCC(C)[C@H]1CCC2[C@@H]3CCC4C[C@@H]([O-])CC[C@]4(C)C3CC[C@@]21C.Cl.[Ti+4] (stereo partly specified)")
0.0
>>> qualitative_label("CCN(CCc1ccc(F)cc1)c1ccc(CO)c(Cl)c1")
0.0
